methodNotes: Plasma tandospirone concentration measured after observation and evaluation of behavior in PD-LID rats
Type: in vivo, rat
runParameters: rat, plasma; continuous subcutaneous infusion 0.05 mg/kg/hour
quantity: concentration at 7 h (ng/mL)

[[record]]
smilesstructure = "O=C1[C@@H]2[C@H]3CC[C@H](C3)[C@@H]2C(=O)N1CCCCN1CCN(c2ncccn2)CC1"
datavalue = 23.5


* * *

methodNotes: Plasma tandospirone concentration measured after observation and evaluation of behavior in PD-LID rats
Type: in vivo, rat
runParameters: rat, plasma; continuous subcutaneous infusion 0.25 mg/kg/hour
quantity: concentration at 7 h (ng/mL)

[[record]]
smilesstructure = "O=C1[C@@H]2[C@H]3CC[C@H](C3)[C@@H]2C(=O)N1CCCCN1CCN(c2ncccn2)CC1"
quantity = "concentration at 7 h"
unit = "ng/mL"
datavalue = 119

